ASSAYED_SYSTEM: mt G12D KRas binding to GST-RBD (Raf Ras binding domain) (Homo sapiens, UniProt P01116, G12D)
Construct: expressed in transfected cells; host or cells: NIH-3T3 cells (lysate)
EXPERIMENT_DESCRIPTION: GST-RBD pulldown assay
EXPERIMENTAL_SETUP: lysates of NIH-3T3 cells that ectopically express G12D KRas; compared to DMSO control; FIG. 1B
Positions of bridges follow the written chain, without caps; N, C: chain ends. Non-standard residues stand in square brackets, D forms with d. Residues, ends and D or L forms follow the SMILES beside them. ξ: configuration not given here. ξK = NCCCCC(N)C(=O)O; ξA = CC(N)C(=O)O
OBSERVATION_TYPE: inhibiting the ability of GST-RBD to bind mt G12D KRas

CSCC[C@H](NC(=O)[C@H](CC(=O)O)NC(=O)[C@H](CS)NC(=O)[C@H](CC(=O)O)NC(=O)[C@H](Cc1cnc[nH]1)NC(=O)[C@@H](N)CC(C)C)C(=O)N[C@@H](CCCCN)C(=O)NC(C)C(=O)N[C@@H](CCCCN)C(=O)NC(CCCCN)C(=O)N[C@H](C(=O)N[C@@H](CCCNC(=N)N)C(=O)NCC(=O)N[C@@H](CC(C)C)C(=O)N[C@@H](CCC(N)=O)C(N)=O)C(C)C (stereo partly shown) [FY-A-90-2B] (H-LHDCDMK[ξA]K[ξK]VRGLQ-NH2) ... little activity
CSCC[C@H](NC(=O)[C@H](CC(=O)O)NC(=O)[C@H](CS)NC(=O)[C@H](CC(=O)O)NC(=O)[C@H](Cc1cnc[nH]1)NC(=O)[C@@H](N)CC(C)C)C(=O)N[C@@H](CCCCN)C(=O)NC(CCCCN)C(=O)N[C@@H](CCCCN)C(=O)NC(CCCCN)C(=O)N[C@H](C(=O)N[C@@H](CCCNC(=N)N)C(=O)NCC(=O)N[C@@H](CC(C)C)C(=O)N[C@@H](CCC(N)=O)C(N)=O)C(C)C (stereo partly shown) [FY-A-90-1B] (H-LHDCDMK[ξK]K[ξK]VRGLQ-NH2) ... little activity
CSCC[C@@H]1NC(=O)[C@@H](NC(=O)[C@H](CS)NC(=O)[C@H](CC(=O)O)NC(=O)[C@H](Cc2cnc[nH]2)NC(=O)[C@@H](N)CC(C)C)CC(=O)NCCCC[C@@H](C(=O)NC(CCCCN)C(=O)N[C@H](C(=O)N[C@@H](CCCNC(=N)N)C(=O)NCC(=O)N[C@@H](CC(C)C)C(=O)N[C@@H](CCC(N)=O)C(N)=O)C(C)C)NC(=O)C(C)NC(=O)[C@H](CCCCN)NC1=O (stereo partly shown) [FY-A-90-2A] (H-LHDCDMK[ξA]K[ξK]VRGLQ-NH2; lactam 5-9) ... little activity

Source: patent US10507228B2
